- method_notes: Thermal stability by thermographic method (TGA)
- Assay type: physicochemical

| given_smiles | thermal stability (in words) |
| --- | --- |
| COc1ccc(/C=C2\Oc3ccc(C)cc3O/C(=C\c3ccc(OC)c(OC)c3)C2=O)cc1OC | excellent |
| CCCCN(CCCC)c1ccc(/C=C2\Oc3ccc(C)cc3O/C(=C\c3ccc(N(CCCC)CCCC)cc3)C2=O)cc1 | excellent |
| COc1cc(OC)c(OC)cc1/C=C1\Oc2ccc(C)cc2O/C(=C\c2cc(OC)c(OC)cc2OC)C1=O | excellent |

====

- method_notes: Absorption strength (absorption spectrum in ethanol)
- Assay type: physicochemical
- run_conditions: extinction at the absorption maximum extrapolated to a concentration of 1 g/100 ml; ethanol
endpoint: E1 % value
Write no unit; give the number alone.

Examples with answers:
| compound | endpoint | endpoint_result |
| --- | --- | --- |
| CC1=C(/C=C/C(C)=C/C=C/C(C)=C/C=C/C=C(C)/C=C/C=C(C)/C=C/C2=C(C)CCCC2(C)C)C(C)(C)CCC1 [Beta-carotene, beta-carotene, reference compound] | E1 % value | 408 |
| COc1ccc(/C=C2\Oc3ccc(C)cc3O/C(=C\c3ccc(OC)c(OC)c3)C2=O)cc1OC [Example 3] | E1 % value | 515 |
| COc1cc(OC)c(OC)cc1/C=C1\Oc2ccc(C)cc2O/C(=C\c2cc(OC)c(OC)cc2OC)C1=O [Example 1] | E1 % value | 505 |
| CCCCN(CCCC)c1ccc(/C=C2\Oc3ccc(C)cc3O/C(=C\c3ccc(N(CCCC)CCCC)cc3)C2=O)cc1 [Example 8] | E1 % value | 571 |

Let's switch to this compound now.
## Task Returns the measured E1 % value for the input compound. Input: COc1cc(/C=C/C(=O)CC(=O)/C=C/c2ccc(O)c(OC)c2)ccc1O [Curcumin, curcumin, reference compound]
## Result 1507

====

- method_notes: Thermal stability by thermographic method (TGA)
- Format: physicochemical
- run_conditions: TGA, RT to 800° C., heating rate 10 K/min
// boundary case: Temperature at which 98% of the weight was still present equal to 200 °C maps to Criterion not met; strictly smaller maps to Criterion met

These solved cases illustrate the format of a correct answer.
| molecule | cat |
| --- | --- |
| COc1cc(OC)c(OC)cc1/C=C1\Oc2ccc(C)cc2O/C(=C\c2cc(OC)c(OC)cc2OC)C1=O [Example 1] | Criterion not met |
| CCCCN(CCCC)c1ccc(/C=C2\Oc3ccc(C)cc3O/C(=C\c3ccc(N(CCCC)CCCC)cc3)C2=O)cc1 [Example 8] | Criterion not met |
| COc1cc(/C=C/C(=O)CC(=O)/C=C/c2ccc(O)c(OC)c2)ccc1O [Curcumin, curcumin, reference compound] | Criterion not met |
| CC1=C(/C=C/C(C)=C/C=C/C(C)=C/C=C/C=C(C)/C=C/C=C(C)/C=C/C2=C(C)CCCC2(C)C)C(C)(C)CCC1 [Beta-carotene, beta-carotene, reference compound] | Criterion met |

Please examine the following record next.
## Task In the record for COc1ccc(/C=C2\Oc3ccc(C)cc3O/C(=C\c3ccc(OC)c(OC)c3)C2=O)cc1OC [Example 3] , is Temperature at which 98% of the weight was still present less than 200 °C?
## Result Criterion not met

====

Entries and their measured λmax follow.
- method_notes: Absorption strength (absorption spectrum in ethanol)
- Format: physicochemical
- run_conditions: absorption maximum, in ethanol, dilute solution
# output: bare number, implied unit nm

These solved cases illustrate the format of a correct answer.
| compound | λmax / nm |
| --- | --- |
| COc1ccc(/C=C2\Oc3ccc(C)cc3O/C(=C\c3ccc(OC)c(OC)c3)C2=O)cc1OC | 369 |
| CCCCN(CCCC)c1ccc(/C=C2\Oc3ccc(C)cc3O/C(=C\c3ccc(N(CCCC)CCCC)cc3)C2=O)cc1 | 484 |
| COc1cc(/C=C/C(=O)CC(=O)/C=C/c2ccc(O)c(OC)c2)ccc1O [Curcumin, curcumin, reference compound] | 426 |

## Task What does the record list as λmax for CC1=C(/C=C/C(C)=C/C=C/C(C)=C/C=C/C=C(C)/C=C/C=C(C)/C=C/C2=C(C)CCCC2(C)C)C(C)(C)CCC1 [Beta-carotene, beta-carotene, reference compound] ?
## Result 453

## Task Another compound to check: COc1cc(OC)c(OC)cc1/C=C1\Oc2ccc(C)cc2O/C(=C\c2cc(OC)c(OC)cc2OC)C1=O
## Result 437

Entry source: patent US8907110B2
